The reported numbers originate from ChEMBL document CHEMBL3046227.

test system: HT-1080; assay: Cytotoxicity against Homo sapiens (human) HT1080 cells after 48 hr by MTT assay; assay type: functional, cell-based; details: HT-1080, 48 h
Property Name: IC50 (µM)
Numeric answer only, unit µM assumed.

Consider the worked cases shown below.
smiles_data=C[C@H]1[C@@H](OCCNC(=O)Nc2ccc(Cl)cc2)O[C@@H]2O[C@@]3(C)CC[C@H]4[C@H](C)CC[C@@H]1[C@@]24OO3 target=HT-1080 data_value=43.9
smiles_data=C[C@H]1[C@@H](OCCNC(=O)Nc2ccc([N+](=O)[O-])cc2)O[C@@H]2O[C@@]3(C)CC[C@H]4[C@H](C)CC[C@@H]1[C@@]24OO3 target=HT-1080 data_value=29.8

Moving on to another compound below.
Field request: IC50 | item: C[C@H]1[C@@H](O)O[C@@H]2O[C@@]3(C)CC[C@H]4[C@H](C)CC[C@@H]1[C@@]24OO3
49.1
